Recorded values, source paper PMC2685098.

# system_under_test: T1, first PHD finger of autoimmune regulator (AIRE-PHD1), wild type (human, UniProt O43918 293-354)
# T1 sequence (looked up): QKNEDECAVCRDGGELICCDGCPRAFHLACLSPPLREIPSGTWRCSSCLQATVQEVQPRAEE
# test_details: other fluorescence titration
property: pKd
One number for each entry, as −log10 of the molar value.

Inquiry: Need pKd of ARTKQTAAKS [mutant histone H3 peptide (1-10) H3R8AK4me0] , thanks.
Reply text: 4.28
